Below, each entry is listed with its recorded PFOR inhibition relative to nitazoxanide (=100).
tested on: PFOR (pyruvate ferredoxin oxidoreductase); assay: Direct PFOR enzyme assay; type: biochemical; conditions: Thiophene analogues table
Numeric answer only, unit % assumed.

| COMPOUND | NUMBER |
| --- | --- |
| CC(=O)Oc1ccccc1C(=O)Nc1ncc([N+](=O)[O-])s1 [Nitazoxanide, reference compound] | 100 |
| O=C(Nc1ncc([N+](=O)[O-])s1)c1ccsc1 | 96 |
| O=C(Nc1ncc([N+](=O)[O-])s1)c1cccs1 | 88 |
| O=C(Nc1ncc([N+](=O)[O-])s1)c1sc2cc(F)ccc2c1Cl | 96 |

API: the following record is the query input.
Task: Which PFOR inhibition relative to nitazoxanide (=100) value is on record for O=C(Nc1ncc([N+](=O)[O-])s1)c1cc(Cl)sc1Cl ?
Result: 48

---

system: C. jejuni; experiment: MIC testing by broth dilution, C. jejuni; assay type: cell-based, Campylobacter jejuni; settings: Campylobacter jejuni; Furan analogues table; read-out: MIC C. jejuni
Each item that follows carries a reported MIC.
Number in µM, nothing else.

| COMPOUND | MIC, µM |
| --- | --- |
| O=C(Nc1ncc([N+](=O)[O-])s1)c1ccoc1 [VPC16a1006] | 12.5 |
| O=C(Nc1ncc([N+](=O)[O-])s1)c1ccc(Br)o1 [VPC161281] | 12.6 |
| O=C(Nc1ncc([N+](=O)[O-])s1)c1ccc(-c2ccccc2C(F)(F)F)o1 [VPC161196] | 8.5 |
| CC(=O)Oc1ccccc1C(=O)Nc1ncc([N+](=O)[O-])s1 [Nitazoxanide, reference compound] | 39.1 |

Please look at the following compound next.
Task: Please report the recorded MIC for O=C(Nc1ncc([N+](=O)[O-])s1)c1ccc(-c2cccs2)o1 [VPC16b1145] .
Result: 12.5

---

test system: S. epidermidis; test: MIC testing by broth dilution, S. epidermidis plank; type: cell-based, Staphylococcus epidermidis; conditions: broth dilution, Trypticase Soy, 24 h; read-out: MIC (μM) S. epidermidis Plank
PROPERTY: MIC (µM)
Quick reminder: number only, in µM, skip the unit.

Answered examples (10):
| MOLECULE | UNITS_OF_MEASURE | NUMBER |
| --- | --- | --- |
| O=C(Nc1ncc([N+](=O)[O-])s1)C1CCCCC1 [VPC16a1010] | µM | 31.3 |
| NCCCC[C@H](N)C(=O)Nc1ncc([N+](=O)[O-])s1 [VPC16a1032] | µM | 92.4 |
| Cl.NCCOc1cc([N+](=O)[O-])ccc1C(=O)Nc1ncc([N+](=O)[O-])s1 [VPC161256] | µM | 82.1 |
| CN(C)CCOc1ccccc1C(=O)Nc1ncc([N+](=O)[O-])s1 [VPC162052] | µM | 95.1 |
| NCCCOc1ccccc1C(=O)Nc1ncc([N+](=O)[O-])s1.O=C(O)C(F)(F)F [VPC162102TFA] | µM | 73.3 |
| CC(C)(C)OC(=O)N1CCC(C(=O)NCCOc2ccccc2C(=O)Nc2ncc([N+](=O)[O-])s2)CC1 [VPC162059] | µM | 61.6 |
| N#Cc1ccc(C(=O)Nc2ncc([N+](=O)[O-])s2)cc1 [VPC161086] | µM | 21.9 |
| CC(=O)Nc1ccccc1C(=O)Nc1ncc([N+](=O)[O-])s1 [VPC162046b] | µM | 111.0 |
| O=C(Nc1ncc([N+](=O)[O-])s1)c1c(F)cccc1F [VPC16b1010] | µM | 28.0 |
| COc1ccc(-c2ccc(F)cc2F)cc1C(=O)Nc1ncc([N+](=O)[O-])s1 [VPC161171] | µM | 81.8 |

Task: Value wanted: MIC (S. epidermidis) of entry Cc1ncc([N+](=O)[O-])n1CCOC(=O)CCCC(=O)Nc1ncc([N+](=O)[O-])s1 [VPC161277]
Result: 77.6

From: patent US8835644B2
